system: αv integrin; experiment: Cell adhesion assay: RAEC adhesion to vitronectin coated plates; assay type: cell-based; conditions: rabbit aortic endothelial cells, 1.5 h at 37° C., read-out: IC50 to block adhesion of RAEC to vitronectin
EXPERIMENTAL_READOUT: pIC50
Keep in mind that pIC50 stands for -log10 of concentration in molar terms.

State the recorded pIC50 for this entry: O=C(O)CC(CCCCCCc1ccc2c(n1)NCCC2)c1cnc2cc(F)c(F)cc2c1 (stereo not shown) [Compound A6]
7.36

State the recorded pIC50 for this entry: O=C(O)C[C@@H](c1ccc(OC(F)F)nc1)N1CCN(CCCc2ccc3c(n2)NCCC3)C1=O [Compound A1]
8.08

State the recorded pIC50 for this entry: O=C(O)CC(CCCCCCc1ccc2c(n1)NCCC2)c1cnc(C(F)(F)F)nc1 (stereo not shown) [Compound A2]
7.80

State the recorded pIC50 for this entry: O=C(O)CC(CCCCCCc1ccc2c(n1)NCCC2)c1cnc2ccc(F)cc2c1 (stereo not shown) [Compound A4]
8.07

State the recorded pIC50 for this entry: O=C(O)CC(CCCCCCc1ccc2c(n1)NCCC2)c1cnc2cc(F)ccc2c1 (stereo not shown) [Compound A5]
7.70

State the recorded pIC50 for this entry: O=C(O)CC(CCCCCCc1ccc2c(n1)NCCC2)c1cnc2cc(C(F)(F)F)ccc2c1 (stereo not shown) [Compound A7]
6.68

State the recorded pIC50 for this entry: O=C(O)CC(CCCCCCc1ccc2c(n1)NCCC2)c1ccc(OC(F)F)nc1 (stereo not shown) [Compound A3]
7.23

Sourced from patent US12497399B2
